Tested on: DMS-114 complex spheroids with HUVEC/MSC, growth % test/control
protocol-summary: Anticancer human tumor DMS-114 cell line growth inhibition [AhR];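 further: spheroids exposed to agents for 7 days before readout; 100% = DMSO vehicle control wells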
condition-details: second compound 0.1 µM; first compound 0.1 µM; active compounds read low
measure: viability, T/C (%)
Give the quantity in %, number only.

- compound: "NS(=O)(=O)OCC1CC(n2ccc3c(NC4CCc5ccccc54)ncnc32)CC1O (stereo not drawn) + CC(CO)NC(=O)c1cc(-c2ccc(Cl)cc2)nn(-c2cnn(C)c2)c1=O"
  unit-spec: "%"
  viability, T/C: 35.6
- compound: "COc1cc(C2c3cc4c(cc3C(OC3OC5COC(C)OC5C(O)C3O)C3COC(=O)C23)OCO4)cc(OC)c1O (stereo not drawn) + CC(CO)NC(=O)c1cc(-c2ccc(Cl)cc2)nn(-c2cnn(C)c2)c1=O"
  unit-spec: "%"
  viability, T/C: 88.4

Entry CC[C@@]1(O)C(=O)OCc2c1cc1n(c2=O)Cc2cc3c(CN(C)C)c(O)ccc3nc2-1 + Cc1ccccc1N=Nc1ccc(NC(=O)c2ccnn2C)c(C)c1 — recorded viability, T/C = 38

---

System: DMS-114 complex spheroids with HUVEC/MSC, growth % test/control
protocol-summary: Anticancer human tumor DMS-114 cell line growth inhibition [AhR];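 further: spheroids exposed to agents for 7 days before readout; 100% = DMSO vehicle control wells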
condition-details: second compound 10 µM; first compound 0.0949 µM; active compounds read low
measure: viability, T/C

- molecule: "CC(C)CC(NC(=O)C(Cc1ccccc1)NC(=O)c1cnccn1)B(O)O (stereo unspecified) + Cc1ccccc1N=Nc1ccc(NC(=O)c2ccnn2C)c(C)c1"
  measure: "viability, T/C"
  reported-measurement: "0.6%"
- molecule: "O=C(C=Cn1cnc(-c2cc(C(F)(F)F)cc(C(F)(F)F)c2)n1)NNc1cnccn1 + Cc1cncc(-c2nc(NCCc3c[nH]c4ccccc34)c3ncn(C(C)C)c3n2)c1"
  measure: "viability, T/C"
  reported-measurement: "30.6%"
- molecule: "O=C(C=Cn1cnc(-c2cc(C(F)(F)F)cc(C(F)(F)F)c2)n1)NNc1cnccn1 + CC(CO)NC(=O)c1cc(-c2ccc(Cl)cc2)nn(-c2cnn(C)c2)c1=O"
  measure: "viability, T/C"
  reported-measurement: "64.2%"

Entry CCc1c2c(nc3ccc(O)cc13)-c1cc3c(c(=O)n1C2)COC(=O)[C@]3(O)CC + Cc1ccccc1N=Nc1ccc(NC(=O)c2ccnn2C)c(C)c1 — recorded viability, T/C = 40.5%

Entry Nc1ncn(C2CC(O)C(CO)S2)c(=O)n1 (stereo unspecified) + Cc1cncc(-c2nc(NCCc3c[nH]c4ccccc34)c3ncn(C(C)C)c3n2)c1 — recorded viability, T/C = 43.7%

Entry CCN(c1cc(-c2ccc(CN3CCOCC3)cc2)cc(C(=O)NCc2c(C)cc(C)[nH]c2=O)c1C)C1CCOCC1 + Cc1ccccc1N=Nc1ccc(NC(=O)c2ccnn2C)c(C)c1 — recorded viability, T/C = 102%

---

Test system: DMS-114 complex spheroids with HUVEC/MSC, growth % test/control
protocol-summary: Anticancer human tumor DMS-114 cell line growth inhibition [AhR];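 further: spheroids exposed to agents for 7 days before readout; 100% = DMSO vehicle control wells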
condition-details: second compound 3.16 µM; first compound 0.000949 µM; active compounds read low
Overview of reported viability, T/C across a group of compounds:
Give the quantity in %, number only.

Below, each entry is followed by its recorded viability, T/C result.
- compound: "CCc1c2c(nc3ccc(O)cc13)-c1cc3c(c(=O)n1C2)COC(=O)[C@]3(O)CC + Cc1ccccc1N=Nc1ccc(NC(=O)c2ccnn2C)c(C)c1"
  unit-spec: "%"
  viability, T/C: 93.2
- compound: "CC(C)CC(NC(=O)C(Cc1ccccc1)NC(=O)c1cnccn1)B(O)O (stereo not drawn) + CC(CO)NC(=O)c1cc(-c2ccc(Cl)cc2)nn(-c2cnn(C)c2)c1=O"
  unit-spec: "%"
  viability, T/C: 85.7

// next entry
Entry Nc1ncn(C2CC(O)C(CO)S2)c(=O)n1 (stereo not drawn) + Cc1ccccc1N=Nc1ccc(NC(=O)c2ccnn2C)c(C)c1 — recorded viability, T/C = 113
